- method description: Solubility of selected steroids enhanced by cyclodextrins (phase solubility)
- condition details: water, thermodynamic from solid, [Steroid] Intrinsic Solubility (in H2O), in H2O
The following molecules are shown together with reported solubility values.
Value expressed in µM; do not type the unit.

Examples from the recorded data:
molecule: CCC(=O)O[C@]1(C(=O)SCF)[C@H](C)C[C@H]2[C@@H]3C[C@H](F)C4=CC(=O)C=C[C@]4(C)[C@@]3(F)[C@@H](O)C[C@@]21C [Fluticasone propionate, fluticasone propionate]
solubility, µM: 3.9
//
molecule: CCCC1O[C@@H]2C[C@H]3[C@@H]4CCC5=CC(=O)C=C[C@]5(C)[C@H]4[C@@H](O)C[C@]3(C)[C@]2(C(=O)CO)O1 (stereo partly shown) [Budesonide]
solubility, µM: 66
//
molecule: CC1(C)O[C@@H]2C[C@H]3[C@@H]4CCC5=CC(=O)C=C[C@]5(C)[C@@]4(F)[C@@H](O)C[C@]3(C)[C@]2(C(=O)CO)O1 [Triamcinolone acetonide, triamcinolone acetonide]
solubility, µM: 35.6

Which solubility is listed for C[C@@H]1C[C@H]2[C@@H]3CCC4=CC(=O)C=C[C@]4(C)[C@@]3(Cl)[C@@H](O)C[C@]2(C)[C@@]1(OC(=O)c1ccco1)C(=O)CCl [Mometasone furoate, mometasone furoate] ?
18.2

====

- method description: Solubility of selected steroids enhanced by cyclodextrins (phase solubility)
- condition details: aqueous cyclodextrin solution, aqueous with cosolvent or surfactant or cyclodextrin, thermodynamic from solid, Solubility of steroid, β-CD 0.015M
assay metric: solubility (µM)
Value expressed in µM; do not type the unit.

Examples from the recorded data:
compound: CCCC1O[C@@H]2C[C@H]3[C@@H]4CCC5=CC(=O)C=C[C@]5(C)[C@H]4[C@@H](O)C[C@]3(C)[C@]2(C(=O)CO)O1 (stereo partly drawn) [Budesonide]
solubility [µM]: 813
--
compound: C[C@@H]1C[C@H]2[C@@H]3CCC4=CC(=O)C=C[C@]4(C)[C@@]3(Cl)[C@@H](O)C[C@]2(C)[C@@]1(O)C(=O)CCl
solubility [µM]: 129

Now look at this entry.
Which solubility is listed for C[C@@H]1C[C@H]2[C@@H]3CCC4=CC(=O)C=C[C@]4(C)[C@@]3(Cl)[C@@H](O)C[C@]2(C)[C@@]1(OC(=O)c1ccco1)C(=O)CCl [Mometasone furoate, mometasone furoate] ?
13.6

====

- method description: Solubility of selected steroids enhanced by cyclodextrins (phase solubility)
- condition details: aqueous cyclodextrin solution, aqueous with cosolvent or surfactant or cyclodextrin, thermodynamic from solid, [Steroid] solubility, Captisol (0.04 M)
The following molecules are shown together with reported solubility values.
Value expressed in µM; do not type the unit.

Examples from the recorded data:
molecule: CC1(C)O[C@@H]2C[C@H]3[C@@H]4CCC5=CC(=O)C=C[C@]5(C)[C@@]4(F)[C@@H](O)C[C@]3(C)[C@]2(C(=O)CO)O1 [Triamcinolone acetonide, triamcinolone acetonide]
solubility, µM: 4570

molecule: CCC(=O)O[C@]1(C(=O)SCF)[C@H](C)C[C@H]2[C@@H]3C[C@H](F)C4=CC(=O)C=C[C@]4(C)[C@@]3(F)[C@@H](O)C[C@@]21C [Fluticasone propionate, fluticasone propionate]
solubility, µM: 54.1

molecule: C[C@@H]1C[C@H]2[C@@H]3CCC4=CC(=O)C=C[C@]4(C)[C@@]3(Cl)[C@@H](O)C[C@]2(C)[C@@]1(OC(=O)c1ccco1)C(=O)CCl [Mometasone furoate, mometasone furoate]
solubility, µM: 164

Which solubility is listed for CCCC1O[C@@H]2C[C@H]3[C@@H]4CCC5=CC(=O)C=C[C@]5(C)[C@H]4[C@@H](O)C[C@]3(C)[C@]2(C(=O)CO)O1 (stereo partly shown) [Budesonide] ?
2550

====

- method description: Solubility of selected steroids enhanced by cyclodextrins (phase solubility)
- condition details: aqueous cyclodextrin solution, aqueous with cosolvent or surfactant or cyclodextrin, thermodynamic from solid, Solubility of steroid, (SBE)6.7 β-CD 0.0950 M
assay metric: solubility (µM)
Value expressed in µM; do not type the unit.

Examples from the recorded data:
compound: C[C@@H]1C[C@H]2[C@@H]3CCC4=CC(=O)C=C[C@]4(C)[C@@]3(Cl)[C@@H](O)C[C@]2(C)[C@@]1(OC(=O)c1ccco1)C(=O)CCl [Mometasone furoate, mometasone furoate]
solubility (µM): 311

compound: CC1(C)O[C@@H]2C[C@H]3[C@@H]4CCC5=CC(=O)C=C[C@]5(C)[C@@]4(F)[C@@H](O)C[C@]3(C)[C@]2(C(=O)CO)O1 [Triamcinolone acetonide, triamcinolone acetonide]
solubility (µM): 10200

compound: CCCC1O[C@@H]2C[C@H]3[C@@H]4CCC5=CC(=O)C=C[C@]5(C)[C@H]4[C@@H](O)C[C@]3(C)[C@]2(C(=O)CO)O1 (stereo partly drawn) [Budesonide]
solubility (µM): 4280

compound: CCC(=O)O[C@]1(C(=O)SCF)[C@H](C)C[C@H]2[C@@H]3C[C@H](F)C4=CC(=O)C=C[C@]4(C)[C@@]3(F)[C@@H](O)C[C@@]21C [Fluticasone propionate, fluticasone propionate]
solubility (µM): 79.9

Which solubility is listed for `C[C@@H]1C[C@H]2[C@@H]3C[C@H](F)C4=CC(=O)C=C[C@]4(C)[C@@]3(F)[C@@H](O)C[C@]2(C)[C@@]1(O)C(=O)SCF` ?
2160

Which solubility is listed for `C[C@@H]1C[C@H]2[C@@H]3CCC4=CC(=O)C=C[C@]4(C)[C@@]3(Cl)[C@@H](O)C[C@]2(C)[C@@]1(O)C(=O)CCl` ?
2260

====

- method description: Solubility of selected steroids enhanced by cyclodextrins (phase solubility)
- condition details: aqueous cyclodextrin solution, aqueous with cosolvent or surfactant or cyclodextrin, thermodynamic from solid, Solubility of steroid, (SBE)6.7 β-CD 0.0465 M
The following compounds are shown together with reported solubility values.
Value expressed in µM; do not type the unit.

Examples from the recorded data:
compound: C[C@@H]1C[C@H]2[C@@H]3CCC4=CC(=O)C=C[C@]4(C)[C@@]3(Cl)[C@@H](O)C[C@]2(C)[C@@]1(O)C(=O)CCl [Mometasone, mometasone]
solubility / µM: 1220
--
compound: CCCC1O[C@@H]2C[C@H]3[C@@H]4CCC5=CC(=O)C=C[C@]5(C)[C@H]4[C@@H](O)C[C@]3(C)[C@]2(C(=O)CO)O1 (stereo partly drawn) [Budesonide]
solubility / µM: 2550

Which solubility is listed for CC1(C)O[C@@H]2C[C@H]3[C@@H]4CCC5=CC(=O)C=C[C@]5(C)[C@@]4(F)[C@@H](O)C[C@]3(C)[C@]2(C(=O)CO)O1 [Triamcinolone acetonide, triamcinolone acetonide] ?
4570

Which solubility is listed for C[C@@H]1C[C@H]2[C@@H]3CCC4=CC(=O)C=C[C@]4(C)[C@@]3(Cl)[C@@H](O)C[C@]2(C)[C@@]1(OC(=O)c1ccco1)C(=O)CCl [Mometasone furoate, mometasone furoate] ?
164

Which solubility is listed for C[C@@H]1C[C@H]2[C@@H]3C[C@H](F)C4=CC(=O)C=C[C@]4(C)[C@@]3(F)[C@@H](O)C[C@]2(C)[C@@]1(O)C(=O)SCF [Fluticasone, fluticasone] ?
1260

Which solubility is listed for CCC(=O)O[C@]1(C(=O)SCF)[C@H](C)C[C@H]2[C@@H]3C[C@H](F)C4=CC(=O)C=C[C@]4(C)[C@@]3(F)[C@@H](O)C[C@@]21C [Fluticasone propionate, fluticasone propionate] ?
54.1

====

- method description: Solubility of selected steroids enhanced by cyclodextrins (phase solubility)
- condition details: aqueous cyclodextrin solution, aqueous with cosolvent or surfactant or cyclodextrin, thermodynamic from solid, Solubility of steroid, (SBE)9.7 γ-CD […]
Everything with solubility lower than 5 mM is not fulfilled; everything else, including exactly 5 mM, is fulfilled.

Examples from the recorded data:
molecule: C[C@@H]1C[C@H]2[C@@H]3CCC4=CC(=O)C=C[C@]4(C)[C@@]3(Cl)[C@@H](O)C[C@]2(C)[C@@]1(OC(=O)c1ccco1)C(=O)CCl [Mometasone furoate, mometasone furoate]
category label: not fulfilled
//
molecule: C[C@@H]1C[C@H]2[C@@H]3CCC4=CC(=O)C=C[C@]4(C)[C@@]3(Cl)[C@@H](O)C[C@]2(C)[C@@]1(O)C(=O)CCl [Mometasone, mometasone]
category label: fulfilled
//
molecule: C[C@@H]1C[C@H]2[C@@H]3C[C@H](F)C4=CC(=O)C=C[C@]4(C)[C@@]3(F)[C@@H](O)C[C@]2(C)[C@@]1(O)C(=O)SCF [Fluticasone, fluticasone]
category label: fulfilled
//
molecule: CCCC1O[C@@H]2C[C@H]3[C@@H]4CCC5=CC(=O)C=C[C@]5(C)[C@H]4[C@@H](O)C[C@]3(C)[C@]2(C(=O)CO)O1 (some centres unmarked) [Budesonide]
category label: not fulfilled

For the next question, use this molecule.
Exam item: decide whether the reported solubility for CCC(=O)O[C@]1(C(=O)SCF)[C@H](C)C[C@H]2[C@@H]3C[C@H](F)C4=CC(=O)C=C[C@]4(C)[C@@]3(F)[C@@H](O)C[C@@]21C [Fluticasone propionate, fluticasone propionate] is at least 5 mM.
not fulfilled
